Target: Glucose transporter (Leishmania mexicana) (UniProt O61059)
Test: ST_JUDE_LEISH: Cytotoxicity at 2uM final concentration against transgenic Leishmania Mexicana promastigotes LmGT2 that are glucose transport deficient and complemented with the L. Mexicana glucose transporter 2. Activity is measured by DNA content using SYBR green in vitro
Format: functional
Please go through the items and note down their inhibition.
Give bare numbers, in %.

Answered cases to consult:
Molecule | inhibition, %
COC(=O)C1=CNC=C(C(=O)OC)C1c1ccc(Cl)c([N+](=O)[O-])c1 | 6.42
CC(C)(C)c1ccc(NC(=O)c2cccc(CN3CCCN(Cc4cccc(Cl)c4)CC3)c2)cc1 | 2.14
CN1CCN(CC(=O)Nc2ccc(-c3ccc(-c4nc5cc(C(F)(F)F)ccc5[nH]4)cc3)cc2)CC1 | 1.55
CCCc1cn2c3c(cc(C(=O)N[C@@H](Cc4ccccc4)[C@H](O)CNC4CCOCC4)cc13)N(C)S(=O)(=O)CC2 | -0.3

For every listed record, write down its inhibition.
1. COc1cc(NC(=O)Nc2cccc3ccccc23)c(OC)cc1Cl
2. CCOC(=O)/C(=N\OC(C)(C)C(=O)NCc1ccc(O)c(O)c1)c1csc(NC(c2ccccc2)(c2ccccc2)c2ccccc2)n1
3. O=C(/C=C/c1ccc(I)cc1)NCCCCCN1CCC(c2c[nH]c3ccc(O)cc23)CC1
4. CCN(CCCN1CCCCC1)c1cc(C)nc(Nc2ccc(C)cc2Br)n1
5. O=C(Nc1ccc(OC2CCN(Cc3ccc(F)cc3)CC2)cc1)c1cccs1
6. O=C(NCc1ccccc1)c1ncn(CCCN2CCC(N3CCCC3)CC2)c1-c1ccc(Cl)c(Cl)c1
7. CC(C)(C)N1CCC(N(Cc2ccc(-c3ccc(C(F)(F)F)cc3)cc2)C(=O)Cn2c(CCc3cccc(F)c3F)nc(=O)c3cccnc32)CC1
8. CCOC(=O)c1ccc(N(CCCN(CCCN(c2ccc(C(=O)OCC)cc2)S(=O)(=O)c2ccc(C)cc2)CCc2ccc(O)cc2)S(=O)(=O)c2ccc(C)cc2)cc1

3.81
-1.17
1.49
4.15
-2.79
-1.08
0.47
1.65

// for each molecule in input: emit inhibition
1. N[C@@H](Cc1cc(I)c(Oc2ccc(O)c(C(=O)O)c2)c(I)c1)C(=O)O
2. COc1cc2nccc(Nc3cc(C)cc(O)c3)c2cc1OC

[3.61, 0.8]

Kindly give each listed record's inhibition.
1. CCC1=C(CC2NCCc3cc(OC)c(OC)cc32)CC2c3cc(OC)c(OC)cc3CCN2C1 (stereo not given)
2. CCCC/C=C(\Cl)c1ccc(O)c2c1C[C@H]1C[C@H]3[C@H](N(C)C)C(O)=C(C(N)=O)C(=O)[C@@]3(O)C(O)=C1C2=O
3. CC(C)(C)Oc1ccc(CC2NC3(C(=O)N(Cc4ccc(C(C)(C)C)cc4)c4ccccc43)C3C(=O)N(c4ccc(Br)cc4)C(=O)C23)cc1 (stereo not given)
4. CCC(C)NS(=O)(=O)c1ccc2nc(Nc3ccc(C)c(Cl)c3)n([C@H](C)C(C)(C)C)c2c1 (stereo not given in full)

1: 89.6; 2: 0.16; 3: 0.37; 4: 0.57

I need inhibition for every entry listed below, if you could help.
1. CCN(CC)CCCC(C)Nc1c2cc(OC)ccc2nc2cc(Cl)c([N+](=O)[O-])cc12 (stereo not given)
2. CC(C)(CNCCOc1ccc(Cl)cc1)c1nc(-c2ccnc(N)n2)c(-c2ccc(Cl)c(O)c2)[nH]1
3. Cc1nc2nc(N)nc(N)c2c(C)c1Cc1ccc([N+](=O)[O-])cc1

1. 0.82
2. 0.27
3. -0.24

----------
Can you tell me inhibition for the items I'm about to list?
Target: Solute carrier family 2, facilitated glucose transporter member 1 (Homo sapiens)
Assay: ST_JUDE_LEISH: Cytotoxicity at 2uM final concentration against transgenic Leishmania Mexicana promastigotes LmGLUT1 that are glucose transport deficient and complemented with the human glucose transporter GLUT1. Activity is measured by DNA content using SYBR green in vitro
Assay type: functional
Give bare numbers, in %.

Use these answered entries as a reference point.
Compound | System | inhibition (%)
COc1cc(CCOc2c(C)nc(N)nc2N)cc(OC)c1OC | Solute carrier family 2, facilitated glucose transporter member 1 (Homo sapiens) | -0.69
O=C(/C=C/c1ccc(C(F)(F)F)cc1)NCCCCCN1CCN(C(=O)Nc2ccc(Cl)cc2)CC1 | Solute carrier family 2, facilitated glucose transporter member 1 (Homo sapiens) | 2.27
CCN(Cc1ccccc1)C1CCN(Cc2cc(Br)ccc2O)CC1 | Solute carrier family 2, facilitated glucose transporter member 1 (Homo sapiens) | 2.39

# batch size: 6; output inhibition per entry
1. O=C(NCCCCCN1CCCN(C(=O)Nc2ccc(Cl)c(C(F)(F)F)c2)CC1)C1CC1c1ccc(Cl)c(Cl)c1 (stereo not given)
2. CN(C)CCN(C)Cc1ccc(-c2ccc3c(Nc4ccc(F)cc4Cl)ccnc3c2)o1
3. COc1cc2ccccc2c(OC)c1CNCCCCCCNCc1c(OC)cc2ccccc2c1OC
4. COc1ccc(-c2cccc(NC(=O)c3ccc(Cl)cc3)c2)cc1CNC(C)C
5. CN(C)C(=S)N/N=C1/C(=O)Nc2ccc(OC(F)(F)F)cc21
6. CCOC(=O)CCCCOc1c(OC)cc(Cc2cnc(N)nc2N)cc1OC

[2.42, 1.3, 11.1, 3.8, 1.94, 6.18]

Provide value of inhibition for this record tested with Solute carrier family 2, facilitated glucose transporter member 1 (Homo sapiens): CS(=O)(=O)c1ccc(CCNCc2ccc(-c3ccc(CN(C(=O)C4CC(=O)c5ccccc54)C4CCN(Cc5ccccc5)CC4)cc3)nc2)cc1 (stereo not given) 1.6

----------
Would you kindly list inhibition for each of these compounds?
Target: Solute carrier family 2, facilitated glucose transporter member 1 (Homo sapiens) (UniProt P11166)
Sequence (P11166 whole entry): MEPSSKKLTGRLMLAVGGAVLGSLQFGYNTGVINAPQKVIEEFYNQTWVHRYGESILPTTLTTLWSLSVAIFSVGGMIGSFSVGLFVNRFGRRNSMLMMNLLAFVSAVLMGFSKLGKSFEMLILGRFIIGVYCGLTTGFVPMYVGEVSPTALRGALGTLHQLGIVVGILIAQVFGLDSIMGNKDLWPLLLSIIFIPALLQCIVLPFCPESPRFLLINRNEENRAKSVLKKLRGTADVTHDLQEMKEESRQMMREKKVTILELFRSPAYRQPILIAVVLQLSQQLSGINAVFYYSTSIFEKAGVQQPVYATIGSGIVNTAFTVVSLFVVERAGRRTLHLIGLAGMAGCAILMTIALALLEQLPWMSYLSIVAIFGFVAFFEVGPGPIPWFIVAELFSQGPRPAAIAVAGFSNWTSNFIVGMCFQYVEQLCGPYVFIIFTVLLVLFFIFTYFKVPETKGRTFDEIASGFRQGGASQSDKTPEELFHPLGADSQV
Assay: ST_JUDE_LEISH: Cytotoxicity at 2uM final concentration against transgenic Leishmania Mexicana promastigotes LmGLUT1 that are glucose transport deficient and complemented with the human glucose transporter GLUT1. Activity is measured by DNA content using SYBR green in vitro
Assay type: functional
Answers are plain numbers, in %.

Example entries and their recorded answers appear below.
Compound | Recorded Measurement
CC(Nc1ncc(-c2ccsc2)c(-c2nccs2)n1)c1ccc2c(c1)OCCO2 (stereo not drawn) | 5.89
CNc1ccc(CNCc2cccc(-c3ccc(-c4nc5cc(C(F)(F)F)ccc5[nH]4)cc3)c2)cc1 | -1.26
COc1ccc2cc(CNCCCCCCNCc3ccc4cc(OC)ccc4c3)ccc2c1 | 107
CC(Nc1ccc2c(c1)OCCO2)C(=O)Nc1cc(C(F)(F)F)ccc1N1CCOCC1 (stereo not drawn) | 7.38
CCCCCC(NCCCC)c1ccc(OCCOc2ccc(C(CCCCC)NCCCC)cc2)cc1 (stereo not drawn) | 60.3
COc1ccc(C2CCN(CCCCNC(=O)c3ccc(NC(=O)c4ccc(Cl)cc4)cc3)CC2)c(C)c1 | -0.79
CCCCCCNC(=O)C(N)CCCC(N)C(=O)NCCCCCC (stereo not drawn) | 6.05
O=C(Nc1ccc(C(=O)OCC2CCCN3CCCCC23)cc1)c1ccc(Cl)c(Cl)c1 (stereo not drawn) | 0.06
CN1C(=O)C(=O)N(CCCCCONC(=N)N)C1=S | 9.86
CCN(CC)c1ccc(-c2nc3cc(Cl)cnc3[nH]2)cc1 | 5.04

Here are 3 compounds. What values of inhibition were reported for them?
1. CCCCN1Cc2c(n(CC(=O)Nc3ccccc3)c3cc(-c4ccccc4)nn3c2=O)C1=O
2. Cc1ccccc1C1CCN(C2CCC(NC(=O)/C=C/c3cccc(Cl)c3Cl)CC2)CC1 (stereo not drawn)
3. CN(C)CCCOc1ccc(-c2nc(-c3ccc4c(c3)CCC4=NO)c(-c3ccncc3)[nH]2)cc1

1: 1.25; 2: 4.12; 3: 2.55

----------
Molecular target: Solute carrier family 2, facilitated glucose transporter member 1 (Homo sapiens) (UniProt P11166)
Assay: ST_JUDE_LEISH: Cytotoxicity at 2uM final concentration against transgenic Leishmania Mexicana promastigotes LmGLUT1 that are glucose transport deficient and complemented with the human glucose transporter GLUT1. Activity is measured by DNA content using SYBR green in vitro
Format: functional
Measured Quantity: inhibition (%)
Numbers only, in %.

For every record below, what is its inhibition?
1. CCOc1cc(CC)ccc1C1CCN(CCN2CCC(NC(=O)c3ccc(-c4ccc(C(C)=O)cc4)cc3)CC2)CC1
2. COc1ccc2nc(-c3ccccc3)cc(NCCN(C)C)c2c1
3. Cc1cccc(Nc2nc(NCCCCN)nc3cc[nH]c(=O)c23)c1
4. CC(C)c1ccc(S(=O)(=O)Nc2cccc(CCN3CCC(N4CCCCC4)CC3)c2)cc1
5. CN(C)CCN(C)Cc1ccc(-c2ccc3c(Nc4ccc(Oc5ccccn5)cc4)ccnc3c2)o1
6. Cc1cccc(Nc2nc(N[C@@H]3CCCNC3)nc3cc[nH]c(=O)c23)c1

1.17
8.41
6.92
38
-2.89
92.3

I'm hoping you can list inhibition for every compound here, please.
1. CN1CCN(Cc2cc3cc(NC(=O)/C=C/c4ccc(Cl)cc4)ccc3s2)CC1
2. O=C(NCc1ccccc1)Nc1ccc(-c2cccc(-c3nc4cc(C(F)(F)F)ccc4[nH]3)c2)cc1
3. CC(=O)Nc1ccc(C(=O)Nc2cccc(-c3ccc(-c4nc5cc(F)ccc5[nH]4)s3)c2)cn1
4. CCCCn1c(Sc2ccc(C#N)c([N+](=O)[O-])c2)nnc1-c1cccc(Cl)c1
5. CCOc1ccc(-c2cc3nc(C4CCNCC4)c(C(=O)Nc4ccc(C)cc4Cl)cn3n2)cc1

4.5
-0.99
0.96
4.8
4.75

For every listed record, write down its inhibition.
1. CCS(=O)(=O)c1ccc(-c2cnc3[nH]cc(-c4ccc(N)cc4)c3c2)cc1
2. COc1cc(OC)cc(-c2nn(-c3ccc([N+](=O)[O-])cc3C#N)c(=S)n2Cc2ccco2)c1
3. Cc1ccc(CNc2cc(C(F)(F)F)nc(-c3ccc(S(C)(=O)=O)cc3)n2)cc1
4. O=C(Nc1ccc(OC2CCN(Cc3ccsc3)CC2)c(Cl)c1)c1ccc(F)cc1
5. COC(=O)CCCCCOc1cc(Cc2cnc(N)nc2N)cc(OC)c1OC
6. N#Cc1ccc2c(c1)CCN(CCC1CCC(NC(=O)c3cc4cccc([N+](=O)[O-])c4[nH]3)CC1)C2 (stereo not given)
7. CC[C@H](C)[C@H](NC(=O)[C@H](CC1CCCCC1)[C@H](CC)N(O)C=O)C(=O)Nc1ccccn1

16.2
0.03
9.86
4.89
-0.5
10.1
8.41

Required: inhibition, one value per compound below.
1. O=C(NC1CC1)c1ccc(N2CCCCN2CCc2ccccc2)c(C(F)(F)F)c1
2. CCN(CC)CC(O)c1cc(-c2ccc(C)cc2)nc2c(C)cc(C)cc12 (stereo not given)
3. CN(C)S(=O)(=O)c1ccc(Nc2nc(NCCC3C=NC=N3)nc3cc[nH]c(=O)c23)cc1 (stereo not given)

1. 10.5
2. 3.3
3. 4.88

Could I get inhibition for every one of these entries?
1. COc1cccc(NC(=O)c2nc(N3CCN(c4ccncc4)CC3)ccc2Cl)c1
2. O=C(Nc1ccccc1)N(Cc1ccc(-c2ccc(CNCc3ccc4c(c3)OCO4)cc2)cc1)C1CCN(Cc2ccccc2)CC1
3. Nc1nc(N)c2c(ccc3ccccc32)n1
4. Clc1ccc(-c2nc3cc(-c4ccc5nc(-c6ccc(Cl)cc6)[nH]c5c4)ccc3[nH]2)cc1
5. CCn1ncc2c(N3CCCC3=O)cc(C(=O)N[C@@H](Cc3ccccc3)[C@H](O)CNC(C)(C)c3cccc(OC)c3)cc21
6. Cc1nc(C)c(-c2ccc(Oc3ccc(Cl)cc3)cc2)c(O)c1I

1. -1.23
2. 0.62
3. 14.7
4. 11.2
5. 2.35
6. 2.9

Dear colleague, could you please provide inhibition for the compounds listed below?
1. O=C(Nc1cccc(Cl)c1)N(CCCn1ccnc1)Cc1csc(-c2ccc(CNCc3ccccc3)cc2)n1
2. CCOc1cc(C=NNc2nc(C)cc(-n3nc(C)cc3C)n2)ccc1O
3. COc1cc2nc(N3CCC(CNC(=O)c4cc5ccccc5s4)CC3)nc(N)c2cc1OC

1. 5.54
2. 1.32
3. 11.8
